Test system: 282377-053-R-J1-PDC complex spheroid viability;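 note: spheroids exposed to agents for seven days before readout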
runDescription: Anticancer human tumor 282377-053-R-J1-PDC patient-derived colon adenocarcinoma cell line growth inhibition [RAS]
conditionDescription: curve of first compound; second compound 0.03 µM
valueType: IC50

Worked cases, IC50 given:
molecule	IC50
CC(C)n1nc(-c2ccc3oc(N)nc3c2)c2c(N)ncnc21 + CCn1c(-c2cc(N3CCN(C)CC3)cnc2C(C)OC)c2c3cc(ccc31)-c1csc(n1)CC(NC(=O)C1CC1C)C(=O)N1CCCC(N1)C(=O)OCC(C)(C)C2	0.0438 µM
NC1c2ccccc2OC12CCN(c1cnc3c(N4CCCc5ncccc54)n[nH]c3n1)CC2 (stereo not drawn) + CCn1c(-c2cc(N3CCN(C)CC3)cnc2C(C)OC)c2c3cc(ccc31)-c1csc(n1)CC(NC(=O)C1CC1C)C(=O)N1CCCC(N1)C(=O)OCC(C)(C)C2	> 10 µM
CC(C)NCC(C(=O)N1CCN(c2ncnc3c2C(C)CC3O)CC1)c1ccc(Cl)cc1 (stereo not drawn) + CCn1c(-c2cc(N3CCN(C)CC3)cnc2C(C)OC)c2c3cc(ccc31)-c1csc(n1)CC(NC(=O)C1CC1C)C(=O)N1CCCC(N1)C(=O)OCC(C)(C)C2	> 10 µM

Prompt: Would you mind telling me what IC50 value was observed for CC(Nc1ccc2c(c1)OCCn1cc(N3C(=O)OCC3C(F)F)nc1-2)C(N)=O (stereo not drawn) + CCn1c(-c2cccnc2C(C)OC)c2c3cc(ccc31)N1CCOC(CC(NC(=O)C(C(C)C)N(C)C(=O)C3(F)CCN(C(=O)C#CC(C)(C)N(C)C)CC3)C(=O)N3CCCC(N3)C(=O)OCC(C)(C)C2)C1 ?
Response: > 10 µM

Prompt: Follow-up item: CC(Nc1ccc2c(c1)OCCn1cc(N3C(=O)OCC3C(F)F)nc1-2)C(N)=O (stereo not drawn) + CCn1c(-c2cc(N3CCN(C)CC3)cnc2C(C)OC)c2c3cc(ccc31)-c1csc(n1)CC(NC(=O)C1CC1C)C(=O)N1CCCC(N1)C(=O)OCC(C)(C)C2
Response: > 10 µM

Prompt: Follow-up item: C=CC(=O)N1CCN(c2nc(OCC3CCCN3C)nc3c(F)c(-c4nc(N)cc(C)c4C(F)(F)F)c(Cl)cc23)C(C)C1 (stereo not drawn) + CCn1c(-c2cc(N3CCN(C)CC3)cnc2C(C)OC)c2c3cc(ccc31)-c1csc(n1)CC(NC(=O)C1CC1C)C(=O)N1CCCC(N1)C(=O)OCC(C)(C)C2
Response: > 1 µM

Prompt: Follow-up item: CC1(O)CCCC1n1c(=O)c(C(F)F)cc2cnc(NC3CCN(S(C)(=O)=O)CC3)nc21 (stereo not drawn) + CCn1c(-c2cc(N3CCN(C)CC3)cnc2C(C)OC)c2c3cc(ccc31)-c1csc(n1)CC(NC(=O)C1CC1C)C(=O)N1CCCC(N1)C(=O)OCC(C)(C)C2
Response: 6.98 µM

Prompt: Follow-up item: Nc1ccn(C2OC(CO)C(O)C2(F)F)c(=O)n1 (stereo not drawn) + CCn1c(-c2cccnc2C(C)OC)c2c3cc(ccc31)N1CCOC(CC(NC(=O)C(C(C)C)N(C)C(=O)C3(F)CCN(C(=O)C#CC(C)(C)N(C)C)CC3)C(=O)N3CCCC(N3)C(=O)OCC(C)(C)C2)C1
Response: > 1 µM
